Origin of values: patent US9347934B2

# target under test: UniProt Q9NYV8
# Sequence (Q9NYV8 1-317): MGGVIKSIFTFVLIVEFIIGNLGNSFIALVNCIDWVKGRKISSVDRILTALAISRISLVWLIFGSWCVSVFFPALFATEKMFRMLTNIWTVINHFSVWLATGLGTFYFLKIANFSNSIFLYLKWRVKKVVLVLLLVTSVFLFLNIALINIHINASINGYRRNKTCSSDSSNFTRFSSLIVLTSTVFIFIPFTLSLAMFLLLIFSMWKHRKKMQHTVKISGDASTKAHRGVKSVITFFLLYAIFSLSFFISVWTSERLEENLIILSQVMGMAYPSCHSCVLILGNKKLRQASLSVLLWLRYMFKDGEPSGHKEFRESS
# assay protocol: Calcium fluorescence functional assay, TAS2R14 cell line
# conditions used: increasing concentrations of KCl; TAS2R14 cell line (FIG. 3); read-out: EC50 value, activation of TAS2R14
# Description: Accordingly, each cell line of the panel expressed a human bitter taste receptor and mouse Gα15 signaling protein. Probenecid was not included in the load solution. After dye loading, cell plates were placed in a fluorescent plate reader (e.g., FDSS6000 (Hamamatsu, Japan)) and receptor stimulation was measured by adding 50 ul of 3× concentrated ligand/agonist stock. Fluorescence was monitored continuously for 10 s before agonist addition and for 100-250 s after stimulation with agonist. […]
pEC50: −log10 of the molar value.
parameter: pEC50

So for [Cl-].[K+] [KCl, potassium chloride] , the logged pEC50 turned out to be 1.82 to 2.30
